# assay.setup: 415 K; 101.33 kPa; Liquid; Small sample (50 mg) DSC
observable: molar entropy (J/K/mol)
Express it in J/K/mol; write the number only.

Output measured molar entropy for this item: "OC[C@@H](O)C(O)[C@H](O)CO"
397.09

Output measured molar entropy for this item: OC[C@H](O)C(O)[C@@H](O)CO [L-(-)-arabitol]
394.8

Output measured molar entropy for this item: "OC[C@@H](O)[C@@H](O)CO"
342.55

Output measured molar entropy for this item: "OC[C@@H](O)[C@H](O)[C@@H](O)CO"
406.78

----------
# assay.setup: 345 K; 101.33 kPa; Crystal; Small sample (50 mg) DSC
observable: molar entropy (J/K/mol)
Express it in J/K/mol; write the number only.

Output measured molar entropy for this item: "OC[C@@H](O)[C@@H](O)CO"
191.53

Output measured molar entropy for this item: OC[C@H](O)C(O)[C@@H](O)CO [L-(-)-arabitol]
235.34

Output measured molar entropy for this item: "OC[C@@H](O)[C@@H](O)[C@H](O)[C@H](O)CO"
263.61

Output measured molar entropy for this item: "OC[C@@H](O)[C@H](O)[C@@H](O)CO"
231.52

Output measured molar entropy for this item: "OC[C@@H](O)C(O)[C@H](O)CO"
232.07

Output measured molar entropy for this item: O[C@H]1[C@H](O)[C@@H](O)[C@H](O)[C@@H](O)[C@H]1O [cis-1,2,3,5-trans-4,6-cyclohexanehexol]
232.86
